Tested system: HLA B*5401 (Homo sapiens, UniProt P01889, A329T/C349S/D138N/D201E/E176V/E187T/E204Q/E69G/I76V/K202T/L119W/R155S/R180L/S121T/S35A/S48A/V127L/V306I/V36M/Y140L)
Assay type: binding
Please use YES for Normalized average relative binding affinity (ARB), HLA B*5401 under 0.1 and NO for everything else, ties included.

Incoming: Could you please tell me whether Normalized average relative binding affinity (ARB), HLA B*5401 recorded for XXPXXXXXX [3064.0053] is less than 0.1?
Outgoing: YES

Incoming: Could you please tell me whether Normalized average relative binding affinity (ARB), HLA B*5401 recorded for NXXXXXXXX [3064.0012] is less than 0.1?
Outgoing: NO

Incoming: Could you please tell me whether Normalized average relative binding affinity (ARB), HLA B*5401 recorded for YXXXXXXXX [3064.0020] is less than 0.1?
Outgoing: NO

Incoming: Could you please tell me whether Normalized average relative binding affinity (ARB), HLA B*5401 recorded for XXAXXXXXX [3064.0041] is less than 0.1?
Outgoing: YES

Incoming: Could you please tell me whether Normalized average relative binding affinity (ARB), HLA B*5401 recorded for XXWXXXXXX [3064.0059] is less than 0.1?
Outgoing: NO

Incoming: Could you please tell me whether Normalized average relative binding affinity (ARB), HLA B*5401 recorded for XNXXXXXXX [3064.0032] is less than 0.1?
Outgoing: YES

---

Give measured Normalized average relative binding affinity(ARB) for each item. Keep answers brief.
Tested system: H-2 D^b (Mus musculus, UniProt P01899)
Sequence (P01887 21-119): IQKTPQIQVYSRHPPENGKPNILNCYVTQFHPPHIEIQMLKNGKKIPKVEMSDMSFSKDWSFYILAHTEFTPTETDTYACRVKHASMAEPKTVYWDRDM
Sequence (P01899 25-362): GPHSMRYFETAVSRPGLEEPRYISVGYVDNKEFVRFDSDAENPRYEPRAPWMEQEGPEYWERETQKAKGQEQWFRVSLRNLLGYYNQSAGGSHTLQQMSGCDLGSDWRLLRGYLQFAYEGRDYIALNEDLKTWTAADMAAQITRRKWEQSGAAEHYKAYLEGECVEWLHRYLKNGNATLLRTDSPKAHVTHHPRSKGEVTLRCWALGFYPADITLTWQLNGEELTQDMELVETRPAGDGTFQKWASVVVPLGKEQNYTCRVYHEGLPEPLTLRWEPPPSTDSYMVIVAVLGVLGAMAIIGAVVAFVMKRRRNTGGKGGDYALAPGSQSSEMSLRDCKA
Type: binding
Answer field: number only, no words.

Incoming: Provide measured Normalized average relative binding affinity(ARB) value, entry: XXXXXRXXX [3064.0115]
Outgoing: 0.50

Incoming: Provide measured Normalized average relative binding affinity(ARB) value, entry: XXXXLXXXX [3064.0090]
Outgoing: 0.10

Incoming: Provide measured Normalized average relative binding affinity(ARB) value, entry: XXXXXXXNX [3064.0152]
Outgoing: 0.099

---

Tested system: H-2 D^d (Mus musculus)
Sequence (P01900 whole entry, looked up): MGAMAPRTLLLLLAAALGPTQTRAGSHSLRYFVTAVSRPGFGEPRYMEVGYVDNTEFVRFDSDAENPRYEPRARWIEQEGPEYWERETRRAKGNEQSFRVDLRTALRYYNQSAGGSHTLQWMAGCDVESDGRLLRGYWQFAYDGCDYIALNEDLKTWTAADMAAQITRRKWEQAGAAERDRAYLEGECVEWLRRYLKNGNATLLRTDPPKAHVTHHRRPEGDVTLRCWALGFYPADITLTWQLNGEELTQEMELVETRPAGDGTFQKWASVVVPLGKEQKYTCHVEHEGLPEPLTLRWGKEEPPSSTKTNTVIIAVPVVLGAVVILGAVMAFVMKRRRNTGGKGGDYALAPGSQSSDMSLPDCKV
Format: binding
Give measured Normalized average relative binding affinity(ARB) for each item. Keep answers brief.
Answer field: number only, no words.

Incoming: Provide measured Normalized average relative binding affinity(ARB) value, entry: XXXXXPXXX [3064.0113]
Outgoing: 0.094

Incoming: Provide measured Normalized average relative binding affinity(ARB) value, entry: XXXXXXXHX [3064.0147]
Outgoing: 0.11

Incoming: Provide measured Normalized average relative binding affinity(ARB) value, entry: XXXXSXXXX [3064.0096]
Outgoing: 0.21

Incoming: Provide measured Normalized average relative binding affinity(ARB) value, entry: XXXXXXDXX [3064.0123]
Outgoing: 0.053

Incoming: Provide measured Normalized average relative binding affinity(ARB) value, entry: XXXXEXXXX [3064.0084]
Outgoing: 0.059

Incoming: Provide measured Normalized average relative binding affinity(ARB) value, entry: XXXEXXXXX [3064.0064]
Outgoing: 0.38

Incoming: Provide measured Normalized average relative binding affinity(ARB) value, entry: XXXXXHXXX [3064.0107]
Outgoing: 0.48

Incoming: Provide measured Normalized average relative binding affinity(ARB) value, entry: XXXXXXXAX [3064.0141]
Outgoing: 0.93

Incoming: Provide measured Normalized average relative binding affinity(ARB) value, entry: XXXXXXKXX [3064.0129]
Outgoing: 0.0067

Incoming: Provide measured Normalized average relative binding affinity(ARB) value, entry: XXXXXFXXX [3064.0105]
Outgoing: 0.79

Incoming: Provide measured Normalized average relative binding affinity(ARB) value, entry: XXXVXXXXX [3064.0078]
Outgoing: 0.48

Incoming: Provide measured Normalized average relative binding affinity(ARB) value, entry: XXXXXXLXX [3064.0130]
Outgoing: 0.036

Incoming: Provide measured Normalized average relative binding affinity(ARB) value, entry: XXXXXXXNX [3064.0152]
Outgoing: 0.49

Incoming: Provide measured Normalized average relative binding affinity(ARB) value, entry: XXXXRXXXX [3064.0095]
Outgoing: 1.0

Incoming: Provide measured Normalized average relative binding affinity(ARB) value, entry: XXXXXXIXX [3064.0128]
Outgoing: 0.048

Incoming: Provide measured Normalized average relative binding affinity(ARB) value, entry: XXXKXXXXX [3064.0069]
Outgoing: 0.39

Incoming: Provide measured Normalized average relative binding affinity(ARB) value, entry: XXXXXRXXX [3064.0115]
Outgoing: 0.42

Incoming: Provide measured Normalized average relative binding affinity(ARB) value, entry: XXXGXXXXX [3064.0066]
Outgoing: 0.17

Incoming: Provide measured Normalized average relative binding affinity(ARB) value, entry: XXXXXXXQX [3064.0154]
Outgoing: 0.68

Incoming: Provide measured Normalized average relative binding affinity(ARB) value, entry: XXXXXXXYX [3064.0160]
Outgoing: 0.40

Incoming: Provide measured Normalized average relative binding affinity(ARB) value, entry: XXXXXWXXX [3064.0119]
Outgoing: 0.77

Incoming: Provide measured Normalized average relative binding affinity(ARB) value, entry: XXXXXXRXX [3064.0135]
Outgoing: 0.013

Incoming: Provide measured Normalized average relative binding affinity(ARB) value, entry: XXXXXXEXX [3064.0124]
Outgoing: 0.060

Incoming: Provide measured Normalized average relative binding affinity(ARB) value, entry: XXXXIXXXX [3064.0088]
Outgoing: 0.28

Incoming: Provide measured Normalized average relative binding affinity(ARB) value, entry: XXXLXXXXX [3064.0070]
Outgoing: 0.52

Incoming: Provide measured Normalized average relative binding affinity(ARB) value, entry: XXXXXXPXX [3064.0133]
Outgoing: 0.020

Incoming: Provide measured Normalized average relative binding affinity(ARB) value, entry: XXXXXXHXX [3064.0127]
Outgoing: 0.075

Incoming: Provide measured Normalized average relative binding affinity(ARB) value, entry: XXXXXXXWX [3064.0159]
Outgoing: 0.27

Incoming: Provide measured Normalized average relative binding affinity(ARB) value, entry: XXXQXXXXX [3064.0074]
Outgoing: 0.49

Incoming: Provide measured Normalized average relative binding affinity(ARB) value, entry: XXXXXXTXX [3064.0137]
Outgoing: 0.029

Incoming: Provide measured Normalized average relative binding affinity(ARB) value, entry: XXXWXXXXX [3064.0079]
Outgoing: 0.54

Incoming: Provide measured Normalized average relative binding affinity(ARB) value, entry: XXXXXXGXX [3064.0126]
Outgoing: 0.031
